// provenance: patent US20210246166A1

Biological target: Recombinant human MASP2 enzyme (fragment corresponding to amino acids 297-686, C-terminal His Tag) (human, UniProt O00187 297-686)
Sequence (O00187 other isoform, or with tags, fused parts or gaps limits assumed): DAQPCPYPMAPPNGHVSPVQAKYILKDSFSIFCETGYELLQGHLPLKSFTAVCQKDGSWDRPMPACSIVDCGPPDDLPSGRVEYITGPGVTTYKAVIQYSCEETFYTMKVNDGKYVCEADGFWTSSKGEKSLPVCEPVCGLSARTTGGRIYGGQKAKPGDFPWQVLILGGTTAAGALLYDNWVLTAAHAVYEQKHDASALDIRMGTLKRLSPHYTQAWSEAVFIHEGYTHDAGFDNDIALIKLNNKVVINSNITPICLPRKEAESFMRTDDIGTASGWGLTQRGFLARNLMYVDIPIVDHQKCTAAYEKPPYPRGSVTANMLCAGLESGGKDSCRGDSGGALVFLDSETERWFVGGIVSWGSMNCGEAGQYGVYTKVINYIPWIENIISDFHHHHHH
Assay: cell-based or functional assay
Bridge positions count the residues as written; N and C are the ends. Square brackets hold non-standard residues; d marks the D form. Ends that are not written are not given here. Nva(3-Et) = CCC(CC)[C@H](N)C(=O)O; tBuAla = CC(C)(C)C[C@H](N)C(=O)O; Pen = CC(C)(S)[C@H](N)C(=O)O; NMeC = CN[C@@H](CS)C(=O)O
human MASP2 IC50: recorded values
Form entry: value (nM) — number only.

Consider the reported human MASP2 IC50 for these binders:
{2‑(3-Pyridyl)acetyl}-ICSRS[tBuAla]PPI[Pen]IP-NH2 (disulfide 2-10) [(2-(3-Pyridyl)acetic acid)-IC+SRS-((tBu)A)-PPI-(Pen)+IP-NH2]: 8.5
YICSRS[tBuAla]PPI[NMeC]I-NH2 (disulfide 3-11; N-terminus assumed; SMILES CC[C@H](C)[C@H](NC(=O)[C@@H]1CSSC[C@H](NC(=O)[C@@H](NC(=O)[C@@H](N)Cc2ccc(O)cc2)[C@@H](C)CC)C(=O)N[C@@H](CO)C(=O)N[C@@H](CCCNC(=N)N)C(=O)N[C@@H](CO)C(=O)N[C@@H](CC(C)(C)C)C(=O)N2CCC[C@H]2C(=O)N2CCC[C@H]2C(=O)N[C@@H]([C@@H](C)CC)C(=O)N1C)C(N)=O) [YIC+SRS-((tBu)A)-PPI-((N-Me)C)+I-NH2]: 68

Q: Reported human MASP2 IC50, binder AICSRSLPP[Nva(3-Et)]CIPD-NH2 (disulfide 3-11; N-terminus assumed; SMILES CCC(CC)[C@@H]1NC(=O)[C@@H]2CCCN2C(=O)[C@@H]2CCCN2C(=O)[C@H](CC(C)C)NC(=O)[C@H](CO)NC(=O)[C@H](CCCNC(=N)N)NC(=O)[C@H](CO)NC(=O)[C@@H](NC(=O)[C@@H](NC(=O)[C@H](C)N)[C@@H](C)CC)CSSC[C@@H](C(=O)N[C@H](C(=O)N2CCC[C@H]2C(=O)N[C@@H](CC(=O)O)C(N)=O)[C@@H](C)CC)NC1=O) [AIC+SRSLPP-((S)-2-amino-3-ethyl-pentanoic acid)-C+IPD-NH2] : ____
A: 51
